Entry source: ChEMBL document CHEMBL2218924

Target: Hepatocyte growth factor receptor (Homo sapiens)
Conditions: at 1 µM
Reported residual activity is given for each of the following compounds.
property label: residual activity (%)

INSERT INTO measurements (smiles_entry, reported_measurement) VALUES
  ('COc1cc(OC)c(/C=C2\C(=O)Nc3ccccc32)c(OC)c1', 103),
  ('COc1cc2ncnc(Nc3ccc(OCc4ccccc4)cc3)c2cc1OC', 87),
  ('CC(C)[C@H](CO)Nc1nc(Nc2cccc(Cl)c2)c2ncn(C(C)C)c2n1', 83),
  ('COC(=O)[C@@]1(O)C[C@H]2O[C@]1(C)n1c3ccccc3c3c4c(c5c6ccccc6n2c5c31)C(=O)NC4', 6),
  ('O=C1c2ccccc2-c2nc3nnnn3nc21', 127);
